target: Wee1 kinase domain (Homo sapiens, UniProt P30291); construct: Wee1 kinase domain was purchased from Carna (catalog #05-177); purchased Carna 05-177; test: Wee1 Kinase Biochemical Assay (ADP-Glo); conditions: Wee1 kinase domain, 15 uM ATP, ADP-Glo
Sequence (P30291 299-569 limits assumed): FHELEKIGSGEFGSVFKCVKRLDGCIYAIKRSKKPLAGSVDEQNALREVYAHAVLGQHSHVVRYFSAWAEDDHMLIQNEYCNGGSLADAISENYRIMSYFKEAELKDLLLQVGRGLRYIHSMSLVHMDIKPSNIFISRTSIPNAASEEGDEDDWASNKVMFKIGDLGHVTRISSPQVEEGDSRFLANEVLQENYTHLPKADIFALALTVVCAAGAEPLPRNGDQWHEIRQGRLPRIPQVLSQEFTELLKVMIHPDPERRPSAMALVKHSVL

Compound	IC50
CN1CC[C@@H](c2ccc(Nc3ncc4c(n3)N(c3cccc(N=S(C)(C)=O)n3)[C@@H]3CC(C)(C)OC[C@]43C)cc2)C1 (single isomer, unassigned)	< 10 nM
CNCc1cccc(N2c3nc(Nc4ccccc4)ncc3[C@@]3(C)COC(C)(C)C[C@@H]23)n1 (single isomer, unassigned)	< 10 nM
CNCc1cccc(N2c3nc(Nc4ccc(C5CCOCC5)nc4)ncc3[C@@]3(C)COC(C)(C)C[C@@H]23)n1 (single isomer, unassigned)	< 10 nM
CN1CC[C@](C)(c2ccc(Nc3ncc4c(n3)N(c3cccc(N=S(C)(C)=O)n3)[C@H]3CC(C)(C)OC[C@@]43C)cc2)C1 (single isomer, unassigned)	10 to 100 nM
C[C@H]1COC(=O)N1c1cccc(N2c3nc(Nc4cnn(C5CCN(C)CC5)c4)ncc3[C@]3(C)COC(C)(C)C[C@H]23)n1 (single isomer, unassigned)	10 to 100 nM
CN1CCC(n2cc(Nc3ncc4c(n3)N(c3cccc(N=S(C)(C)=O)n3)[C@H]3CC(C)(C)OC[C@@]43C)cn2)C1 (some centres unmarked)	100 to 1000 nM
C[C@H]1COC(=O)N1c1cccc(N2c3nc(Nc4ccc(N5C[C@@H]6C[C@H]5CN6C)c(F)c4)ncc3[C@]3(C)COC(C)(C)C[C@H]23)n1 (single isomer, unassigned)	10 to 100 nM
CNCc1cccc(N2c3nc(Nc4ccc(N5C(=O)CC[C@@H]5C)cc4)ncc3[C@@]3(C)COC(C)(C)C[C@@H]23)n1 (single isomer, unassigned)	< 10 nM
C[C@H]1COC(=O)N1c1cccc(N2c3nc(Nc4ccc(O[C@H]5CCN(C)C5)nc4)ncc3[C@]3(C)COC(C)(C)C[C@H]23)n1 (single isomer, unassigned)	100 to 1000 nM
CNCc1cccc(N2c3nc(Nc4ccc([C@H]5CCCO5)cc4)ncc3[C@]3(C)COC(C)(C)C[C@H]23)n1 (single isomer, unassigned)	≥ 1000 nM
CNCc1cccc(N2c3nc(Nc4ccc(N5CCCOCC5)cc4)ncc3[C@]3(C)COC(C)(C)C[C@H]23)n1 (single isomer, unassigned)	100 to 1000 nM

Where do the numbers come from? From patent US20260166039A1.
